In this section we review reported protein stability index values for a set of variants.
B1: UBE2R2 (parent)
chain: DPQSGELPSERWNPTQNVRTILLS

Variants of: B1
experimental-details: protein stability index of a GFP-peptide fusion (GPS, HEK-293T) (PSI 1-6); higher = more stable;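 note: lentivirally expressed fusions sorted by FACS into six bins by GFP to DsRed ratio, PSI derived from sequencing read proportions per bin multiplied by bin number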
condition-info: c terminus: a fixed tail appended
assay-endpoint: protein stability index

>>> print(df.to_string())
                    sequence  reported_measurement
 0  DPQSGELPSERWPPTQNVRTILLS                  3.71
 1  DPQSGELPSERWNNTQNVRTILLS                  3.17
 2  DPQSGELPSERHNPTQNVRTILLS                  4.08
 3  DPQSGELPSERWNPTMNVRTILLS                  3.46
 4  DPQSGELPSERWGPTQNVRTILLS                  2.46
 5  DPQSGELPTERWNPTQNVRTILLS                  3.98
 6  DPQSGELPNERWNPTQNVRTILLS                   3.8
 7  DPQSGELPSERYNPTQNVRTILLS                  4.07
 8  DPQRGELPSERWNPTQNVRTILLS                  3.87
 9  DPQSGELPSERENPTQNVRTILLS                  4.71
10  DPQSGELPSERWNPTQNPRTILLS                  3.63
11  DPQSGELPSERWNPTQNVRTILNS                  4.87
12  DPQSGELPSERWNPTQHVRTILLS                  3.04
13  DPESGELPSERWNPTQNVRTILLS                  3.82
14  DPQSGELPSEQWNPTQNVRTILLS                  4.04
15  DPQSGELPSERWNPTQNVRTILKS                  4.74
16  DPQSGELPCERWNPTQNVRTILLS                   3.9
17  DLQSGELPSERWNPTQNVRTILLS                  2.99
18  DPQSGELPSERWNPTQNVLTILLS                  2.61
19  DPQSGELPSERANPTQNVRTILLS                  4.61
20  DPRSGELPSERWNPTQNVRTILLS                   3.4
21  DPHSGELPSERWNPTQNVRTILLS                  3.22
22  DPQSGELPSERWNVTQNVRTILLS                  3.48
23  DPQSGELPSERWNCTQNVRTILLS                  3.35
24  DPQSGELPSERWNPLQNVRTILLS                  2.86
25  DPQSGELPSERWNPTQNVRTILIS                  3.17
26  DPQSGELPSERWNPTQNVRTILLP                  3.95
27  DPQSGELPSERWNPTQNCRTILLS                   3.9
28  DPQSLELPSERWNPTQNVRTILLS                  3.53
29  DPQSGELPSERWNPTQNVRTILAS                  4.23
30  DHQSGELPSERWNPTQNVRTILLS                  2.88
31  DPQSGELPSEFWNPTQNVRTILLS                  2.82
32  DPQFGELPSERWNPTQNVRTILLS                  3.49
33  DPQSGELPSERWNGTQNVRTILLS                  3.71
34  DPQSGELPSERWNPTQNVRTDLLS                   4.6
35  DPQSGEFPSERWNPTQNVRTILLS                   3.2
36  DPQSGELPSERWNPTQNVGTILLS                   3.7
37  DPQSGELPSERWNLTQNVRTILLS                  2.79
38  DPQSGELPSERWNPTQNKRTILLS                  3.78
39  DPQSGELPSQRWNPTQNVRTILLS                   3.5
40  DPQSGELPSERWNITQNVRTILLS                   2.8
41  DPQSGEHPSERWNPTQNVRTILLS                  3.67
42  DPQSGELPSERWNPTSNVRTILLS                  3.58
43  DPQSGELPSERWNPTQNVRTIFLS                  3.54
44  DPQSGELPSFRWNPTQNVRTILLS                  2.45
45  DPQSGELPYERWNPTQNVRTILLS                  2.92
46  DPQSGELESERWNPTQNVRTILLS                  3.82
47  DPQSGERPSERWNPTQNVRTILLS                  3.81
48  DPQSGELPSELWNPTQNVRTILLS                  3.24
49  DPQSGELPSSRWNPTQNVRTILLS                  2.95
50  DPQSGELSSERWNPTQNVRTILLS                  3.48
51  DPQSGMLPSERWNPTQNVRTILLS                  2.88
52  DPQSHELPSERWNPTQNVRTILLS                  3.83
53  APQSGELPSERWNPTQNVRTILLS                  2.69
54  DPQSGELPSERWNPTQNVRTCLLS                  4.33
55  DPQSGELPSERWNPTQNVRTILLH                  3.58
56  DPQSGELPSERWNPTQSVRTILLS                   2.9
57  DPQSGELPSERWNSTQNVRTILLS                  3.69
58  DPQSGELPSERWNPTQNLRTILLS                  3.27
59  DPQSGEVPSERWNPTQNVRTILLS                  3.19
60  DPQSGELPSERWNPTQNVETILLS                  4.76
61  DRQSGELPSERWNPTQNVRTILLS                  3.09
62  DPQSGELPSERWNPTQNVRTIPLS                   4.7
63  DPQSGELPLERWNPTQNVRTILLS                  3.76
64  DPQSGELPSERWNPTQNVATILLS                  3.61
65  DPSSGELPSERWNPTQNVRTILLS                  3.41
66  DPQSGELPSERWNPTPNVRTILLS                  3.24
67  DPQSGELPSERWNPTQNMRTILLS                   3.3
68  DPQSGELPSERWNPVQNVRTILLS                  3.48
69  DPQSGELPSERWNPTQNVRTALLS                  5.11
